- Test system: Phakopsora pachyrhizi (F129L)
- EXPERIMENT NOTES: Protective control of soybean rust on soybeans (PHAKPA P2)
- Assay type: in vivo
- CONDITION: protective P2, 16 ppm, soybean rust F129L
Assign class by % PHAKPA (F129L) Disease level P2 at 16 ppm: not lower than 4% means criterion met; lower than 4% means criterion not met.

SMI | ANSWER LABEL
CNC(=O)/C(=N/OC)c1cccc(C)c1CO/N=C(\C)c1ccccc1C(F)F | criterion met
CNC(=O)/C(=N/OC)c1cccc(C)c1CO/N=C(\C)c1ccccc1 | criterion not met
CO/N=C(/C(=O)OC)c1cccc(C)c1CO/N=C(\C)c1ccc(F)cc1Cl | criterion met
CNC(=O)/C(=N/OC)c1cccc(C)c1CO/N=C(\C)c1ccc(Br)cc1C(F)(F)F | criterion met
CO/N=C(/C(=O)OC)c1cccc(C)c1CO/N=C(\C)c1c(F)cc(F)cc1C(F)(F)F | criterion met
CNC(=O)/C(=N/OC)c1cccc(C)c1CO/N=C(\C)c1ccc(Cl)c(C)c1 | criterion not met
CNC(=O)/C(=N/OC)c1cccc(C)c1CO/N=C(\C)c1ccccc1CC(F)(F)F | criterion not met

---

- Test system: Phakopsora pachyrhizi (F129L)
- EXPERIMENT NOTES: Protective control of soybean rust on soybeans (PHAKPA P2)
- Assay type: in vivo
- CONDITION: protective P2, 16 ppm, soybean rust F129L
READOUT TYPE: % PHAKPA (F129L) Disease level P2 at 16 ppm (%)

COMPOUND | MEASUREMENT TARGET | VALUE REPORTED
CO/N=C(/C(=O)OC)c1cccc(C)c1CO/N=C(\C)c1cccc(F)c1C(F)(F)F [compound 330] | Phakopsora pachyrhizi (F129L) | 24
COC=C(C(=O)OC)c1cccc(C)c1CON=C(C)c1cccc(C(F)(F)F)c1 [Ex. 231] | Phakopsora pachyrhizi (F129L) | 0
CO/N=C(/C(=O)OC)c1cccc(C)c1CO/N=C(\C)c1cc(C(F)(F)F)cc(F)c1F [compound 180] | Phakopsora pachyrhizi (F129L) | 7
CNC(=O)/C(=N/OC)c1cccc(C)c1CO/N=C(\C)c1cc(C(F)(F)F)ccc1C(F)(F)F [compound 272] | Phakopsora pachyrhizi (F129L) | 8
C#Cc1cc(C#C)cc(/C(C)=N/OCc2c(C)cccc2/C(=N\OC)C(=O)NC)c1 [compound 193] | Phakopsora pachyrhizi (F129L) | 0
CO/N=C(/C(=O)OC)c1cccc(CF)c1CO/N=C(\C)c1cccc(C(F)(F)F)c1 [compound 25] | Phakopsora pachyrhizi (F129L) | 3
CC/C(=N\OCc1c(C)cccc1/C(=N\OC)C(=O)NC)c1cccc(C(F)(F)F)c1 [Ex. 188] | Phakopsora pachyrhizi (F129L) | 0
CNC(=O)/C(=N/OC)c1cccc(C)c1CO/N=C(\C)c1ccc(Cc2ccccc2)cc1OC(F)(F)F [compound 419] | Phakopsora pachyrhizi (F129L) | 18

---

- System: Phakopsora pachyrhizi (F129L)
- EXPERIMENT NOTES: Protective control of soybean rust on soybeans (PHAKPA P2)
- Assay type: in vivo
- CONDITION: protective P2, 16 ppm, soybean rust F129L
With a cut-off of 30%, any % PHAKPA (F129L) Disease level P2 at 16 ppm strictly below it is called label 1; any % PHAKPA (F129L) Disease level P2 at 16 ppm meeting it or above is called label 0.

SMI | ANSWER LABEL
CO/N=C(/C(=O)OC)c1cccc(C)c1CO/N=C(\C)c1ccc(Cl)c(C)c1 | label 1
CO/N=C(/C(=O)OC)c1cccc(C)c1CO/N=C(\C)c1ccc(C)cc1 | label 1
CNC(=O)/C(=N/OC)c1cccc(C)c1CO/N=C(/c1ccc(F)cc1)C(F)F | label 1
CNC(=O)/C(=N/OC)c1cccc(C)c1CO/N=C(\C)c1ccccc1Oc1ccccc1 | label 0
CNC(=O)/C(=N/OC)c1cccc(C)c1CO/N=C(\C)c1ccccc1OC1CC1 | label 0
CNC(=O)/C(=N/OC)c1cccc(C)c1CO/N=C(\C)c1cccc(Br)c1F | label 1
CNC(=O)/C(=N/OC)c1cccc(C)c1CO/N=C(\C)c1ccc(OC(F)(F)F)cc1F | label 1
CO/N=C(/C(=O)OC)c1cccc(C)c1CO/N=C(\C)c1ccccc1-c1ccccc1 | label 0
CO/N=C(/C(=O)OC)c1cccc(C)c1CO/N=C(\C)c1ccccc1C(F)(F)F | label 0
CNC(=O)/C(=C/OC)c1cccc(C)c1CO/N=C(\C)c1cccc(C(F)(F)F)c1 | label 0
CO/N=C(/C(=O)OC)c1cccc(C)c1CO/N=C(\C)c1cc(Cl)cc(Cl)c1F | label 1
CO/N=C(/C(=O)OC)c1cccc(C)c1CO/N=C(\C)c1ccccc1OC | label 0
C=Cc1cccc(/C(=N\OC)C(=O)NC)c1CO/N=C(\C)c1cccc(C(F)(F)F)c1 | label 1
CO/C=C(/C(=O)OC)c1cccc(C)c1CO/N=C(\C)c1ccccc1CC(F)(F)F | label 1
CNC(=O)/C(=N/OC)c1cccc(C)c1CO/N=C(\C)c1ccccc1C#N | label 1
CO/N=C(/C(=O)OC)c1cccc(C)c1CO/N=C(\C)c1ccc(F)cc1F | label 1
CO/N=C(/C(=O)OC)c1cccc(C)c1CO/N=C(\C)c1ccc(-c2ccc(F)cc2)cc1C(F)(F)F | label 1
CO/N=C(/C(=O)OC)c1cccc(C)c1CO/N=C(\C)c1ccccc1Br | label 0
CNC(=O)/C(=N/OC)c1cccc(C)c1CO/N=C(\C)c1ccccc1OC(C)C | label 0
CO/N=C(/C(=O)OC)c1cccc(C)c1CO/N=C(\C)c1c(C)cccc1C | label 0
CO/N=C(/C(=O)OC)c1cccc(C)c1CO/N=C(\C)c1ccc(F)c(F)c1 | label 1
CCc1cccc(/C(=N\OC)C(=O)OC)c1CO/N=C(\C)c1cccc(C(F)(F)F)c1 | label 1
CNC(=O)/C(=N/OC)c1cccc(C)c1CO/N=C(\C)c1c(F)cc(Br)cc1C(F)(F)F | label 1
CNC(=O)/C(=N/OC)c1cccc(C)c1CO/N=C(\C)c1cc(Cl)ccc1C(F)(F)F | label 1
CO/N=C(/C(=O)OC)c1cccc(C)c1CO/N=C(\C)c1ccc(Cl)c(Cl)c1C(F)(F)F | label 0
CNC(=O)/C(=N/OC)c1cccc(C)c1CO/N=C(\C)c1cc(C(F)(F)F)ccc1C1CC1 | label 0
CO/N=C(/C(=O)OC)c1cccc(C)c1CO/N=C(\C)c1ccc(OC)cc1C(F)(F)F | label 1
CO/N=C(/C(=O)OC)c1cccc(C)c1CO/N=C(\C)c1ccc(C(C)=O)cc1 | label 0
CO/N=C(/C(=O)OC)c1cccc(C)c1CO/N=C(\C)c1ccc(OC(F)(F)F)cc1 | label 1
CNC(=O)/C(=N/OC)c1cccc(C)c1CO/N=C(\C)c1cccc(/C(C)=N/OC)c1 | label 1
CO/N=C(/C(=O)OC)c1cccc(C)c1CO/N=C(\C)c1ccc(OC(F)(F)F)cc1Cl | label 1
CNC(=O)/C(=N/OC)c1cccc(C)c1CO/N=C(\C)c1cccc(/C(=N/OC)C(F)(F)F)c1 | label 1

meta.source: patent US20230172204A1
